Reference source for all entries: ChEMBL document CHEMBL3734705

Overview of reported Activity across a group of compounds:
- experimental.protocol: Cytotoxicity against human Hs578T cells assessed as growth level at 10 uM after 48 hrs by SRB assay
- Assay type: functional, Hs-578T
measure.name: Activity (%)

{"compound": "C=C1CC[C@@H]2[C@](C)(COC(C)=O)[C@H](OC(C)=O)CC[C@@]2(C)[C@@H]1CC(Nc1ccc(S(=O)(=O)NC(C)=O)cc1)C1=CCOC1=O (mixture of isomers)", "recorded.measurement": 32.45}
{"compound": "C=C1CC[C@@H]2[C@](C)(COC(C)=O)[C@H](OC(C)=O)CC[C@@]2(C)[C@@H]1CC(NC1CCCC1)C1=CCOC1=O (some centres undefined)", "recorded.measurement": 74.91}
{"compound": "C=C1CC[C@@H]2[C@](C)(COC(C)=O)[C@H](OC(C)=O)CC[C@@]2(C)[C@@H]1C/C=C1/C(=O)OC[C@H]1OC(C)=O", "recorded.measurement": 100.18}
{"compound": "C=C1CC[C@@H]2[C@](C)(CO)[C@H](O)CC[C@@]2(C)[C@@H]1C/C=C1/C(=O)OC[C@H]1O [ANDROGRAPHOLIDE]", "recorded.measurement": 110.33}

----------
Overview of reported inhibition of growth at 10 µM across a group of compounds:
- experimental.protocol: Cytotoxicity against human HOP92 cells assessed as growth inhibition at 10 uM after 48 hrs by SRB assay
- Assay type: functional
- condition.parameters: HOP-92, 48 h, read-out: GI

{"compound": "C=C1CC[C@@H]2[C@](C)(COC(C)=O)[C@H](OC(C)=O)CC[C@@]2(C)[C@@H]1CC(NCc1ccc(F)cc1)C1=CCOC1=O (mixture of isomers)", "inhibition of growth at 10 µM": "81.2%"}
{"compound": "C=C1CC[C@@H]2[C@](C)(COC(C)=O)[C@H](OC(C)=O)CC[C@@]2(C)[C@@H]1CC(NC1CCCC1)C1=CCOC1=O (some centres undefined)", "inhibition of growth at 10 µM": "74.8%"}
{"compound": "C=C1CC[C@@H]2[C@](C)(COC(C)=O)[C@H](OC(C)=O)CC[C@@]2(C)[C@@H]1CC(NCCCC)C1=CCOC1=O (mixture of isomers)", "inhibition of growth at 10 µM": "46.7%"}
{"compound": "C=C1CC[C@@H]2[C@](C)(COC(C)=O)[C@H](OC(C)=O)CC[C@@]2(C)[C@@H]1CC(NCCCCCCCC)C1=CCOC1=O (mixture of isomers)", "inhibition of growth at 10 µM": "55.4%"}

----------
Overview of reported Activity across a group of molecules:
- Tested on: SN12C
- experimental.protocol: Cytotoxicity against human SN12C cells assessed as growth level at 10 uM after 48 hrs by SRB assay
- Type: functional

{"molecule": "C=C1CC[C@@H]2[C@](C)(COC(C)=O)[C@H](OC(C)=O)CC[C@@]2(C)[C@@H]1CC(NC1CCCC1)C1=CCOC1=O (some centres not stated)", "Activity": "78.46%"}
{"molecule": "C=C1CC[C@@H]2[C@](C)(COC(C)=O)[C@H](OC(C)=O)CC[C@@]2(C)[C@@H]1CC(NCc1cccc(Cl)c1)C1=CCOC1=O (mixture of isomers)", "Activity": "62.07%"}
{"molecule": "C=C1CC[C@@H]2[C@](C)(COC(C)=O)[C@H](OC(C)=O)CC[C@@]2(C)[C@@H]1CC(NCc1ccc(F)cc1)C1=CCOC1=O (mixture of isomers)", "Activity": "46.23%"}
{"molecule": "C=C1CC[C@@H]2[C@](C)(COC(C)=O)[C@H](OC(C)=O)CC[C@@]2(C)[C@@H]1CC(Nc1ccc(S(=O)(=O)NC(C)=O)cc1)C1=CCOC1=O (mixture of isomers)", "Activity": "1.94%"}
{"molecule": "C=C1CC[C@@H]2[C@](C)(COC(C)=O)[C@H](OC(C)=O)CC[C@@]2(C)[C@@H]1CC(NCCCCCCCCCCCCCCCCCC)C1=CCOC1=O (mixture of isomers)", "Activity": "103.39%"}
{"molecule": "C=C1CC[C@@H]2[C@](C)(COC(C)=O)[C@H](OC(C)=O)CC[C@@]2(C)[C@@H]1CC(NCCCC)C1=CCOC1=O (mixture of isomers)", "Activity": "89.83%"}
{"molecule": "C=C1CC[C@@H]2[C@](C)(COC(C)=O)[C@H](OC(C)=O)CC[C@@]2(C)[C@@H]1C/C=C1/C(=O)OC[C@H]1OC(C)=O", "Activity": "33.42%"}
{"molecule": "C=C1CC[C@@H]2[C@](C)(COC(C)=O)[C@H](OC(C)=O)CC[C@@]2(C)[C@@H]1CC(NC1CC1)C1=CCOC1=O (mixture of isomers)", "Activity": "101.14%"}
{"molecule": "C=C1CC[C@@H]2[C@](C)(COC(C)=O)[C@H](OC(C)=O)CC[C@@]2(C)[C@@H]1CC(NCc1ccccc1)C1=CCOC1=O (mixture of isomers)", "Activity": "58.19%"}
{"molecule": "C=C1CC[C@@H]2[C@](C)(CO)[C@H](O)CC[C@@]2(C)[C@@H]1C/C=C1/C(=O)OC[C@H]1O [ANDROGRAPHOLIDE]", "Activity": "81.73%"}
{"molecule": "C=C1CC[C@@H]2[C@](C)(COC(C)=O)[C@H](OC(C)=O)CC[C@@]2(C)[C@@H]1CC(NCCCCCCCC)C1=CCOC1=O (mixture of isomers)", "Activity": "73.09%"}
{"molecule": "C=C1CC[C@@H]2[C@](C)(COC(C)=O)[C@H](OC(C)=O)CC[C@@]2(C)[C@@H]1CC(Sc1ccccc1)C1=CCOC1=O (mixture of isomers)", "Activity": "1.3%"}

----------
- experimental.protocol: Cytotoxicity against human OVCAR4 cells assessed as growth level at 10 uM after 48 hrs by SRB assay
- Format: functional, OVCAR-4
Overview of reported Activity across a group of molecules:
measure.name: Activity (%)

{"molecule": "C=C1CC[C@@H]2[C@](C)(COC(C)=O)[C@H](OC(C)=O)CC[C@@]2(C)[C@@H]1CC(NCc1ccc(F)cc1)C1=CCOC1=O (mixture of isomers)", "measure.name": "Activity", "recorded.measurement": 30.87}
{"molecule": "C=C1CC[C@@H]2[C@](C)(COC(C)=O)[C@H](OC(C)=O)CC[C@@]2(C)[C@@H]1CC(Nc1ccc(S(=O)(=O)NC(C)=O)cc1)C1=CCOC1=O (mixture of isomers)", "measure.name": "Activity", "recorded.measurement": 26.08}
{"molecule": "C=C1CC[C@@H]2[C@](C)(COC(C)=O)[C@H](OC(C)=O)CC[C@@]2(C)[C@@H]1C/C=C1/C(=O)OC[C@H]1OC(C)=O", "measure.name": "Activity", "recorded.measurement": 66.49}

----------
- Tested on: CCRF-CEM
- experimental.protocol: Cytotoxicity against human CCRF-CEM cells assessed as growth level at 10 uM after 48 hrs by SRB assay
- Type: functional

{"molecule": "C=C1CC[C@@H]2[C@](C)(CO)[C@H](O)CC[C@@]2(C)[C@@H]1C/C=C1/C(=O)OC[C@H]1O [ANDROGRAPHOLIDE]", "unit.descriptor": "%", "Activity": 23.48}
{"molecule": "C=C1CC[C@@H]2[C@](C)(COC(C)=O)[C@H](OC(C)=O)CC[C@@]2(C)[C@@H]1CC(NCCCC)C1=CCOC1=O (mixture of isomers)", "unit.descriptor": "%", "Activity": 80.69}
{"molecule": "C=C1CC[C@@H]2[C@](C)(COC(C)=O)[C@H](OC(C)=O)CC[C@@]2(C)[C@@H]1CC(Nc1ccc(S(=O)(=O)NC(C)=O)cc1)C1=CCOC1=O (mixture of isomers)", "unit.descriptor": "%", "Activity": -27.89}
{"molecule": "C=C1CC[C@@H]2[C@](C)(COC(C)=O)[C@H](OC(C)=O)CC[C@@]2(C)[C@@H]1CC(NC1CCCC1)C1=CCOC1=O (some centres not stated)", "unit.descriptor": "%", "Activity": 63.47}
{"molecule": "C=C1CC[C@@H]2[C@](C)(COC(C)=O)[C@H](OC(C)=O)CC[C@@]2(C)[C@@H]1C/C=C1/C(=O)OC[C@H]1OC(C)=O", "unit.descriptor": "%", "Activity": -11.4}
{"molecule": "C=C1CC[C@@H]2[C@](C)(COC(C)=O)[C@H](OC(C)=O)CC[C@@]2(C)[C@@H]1CC(NCCCCCCCCCCCCCCCCCC)C1=CCOC1=O (mixture of isomers)", "unit.descriptor": "%", "Activity": 104.64}
{"molecule": "C=C1CC[C@@H]2[C@](C)(COC(C)=O)[C@H](OC(C)=O)CC[C@@]2(C)[C@@H]1CC(NC1CC1)C1=CCOC1=O (mixture of isomers)", "unit.descriptor": "%", "Activity": 95.35}
{"molecule": "C=C1CC[C@@H]2[C@](C)(COC(C)=O)[C@H](OC(C)=O)CC[C@@]2(C)[C@@H]1CC(Sc1ccccc1)C1=CCOC1=O (mixture of isomers)", "unit.descriptor": "%", "Activity": -5.24}
{"molecule": "C=C1CC[C@@H]2[C@](C)(COC(C)=O)[C@H](OC(C)=O)CC[C@@]2(C)[C@@H]1CC(NCc1ccc(F)cc1)C1=CCOC1=O (mixture of isomers)", "unit.descriptor": "%", "Activity": 9.18}
{"molecule": "C=C1CC[C@@H]2[C@](C)(COC(C)=O)[C@H](OC(C)=O)CC[C@@]2(C)[C@@H]1CC(NCc1cccc(Cl)c1)C1=CCOC1=O (mixture of isomers)", "unit.descriptor": "%", "Activity": 42.29}
{"molecule": "C=C1CC[C@@H]2[C@](C)(COC(C)=O)[C@H](OC(C)=O)CC[C@@]2(C)[C@@H]1CC(NCc1ccccc1)C1=CCOC1=O (mixture of isomers)", "unit.descriptor": "%", "Activity": 20.9}
{"molecule": "C=C1CC[C@@H]2[C@](C)(COC(C)=O)[C@H](OC(C)=O)CC[C@@]2(C)[C@@H]1CC(NCCCCCCCC)C1=CCOC1=O (mixture of isomers)", "unit.descriptor": "%", "Activity": 47.26}
